Assay: yeast display, Sf9 membrane polyspecificity reagent, FACS + sequencing; frameworks hold sequencing errors
EXPERIMENTAL READOUT: polyreactivity (PSR sort gate)

Some sequences with recorded polyreactivity (PSR sort gate):
INPUT: Any idea what polyreactivity (PSR sort gate) was measured for QVQLVESGGGLVQAGGSLRLICAASGRTFGGNAMGWYRQAPGKERELVASITSRGGTTYYADSVKGRFTISRDNAKNTVYLQMNSLKPEDTAVYYCAALRRSSFGYWGQGTQVTVSS ?
OUTPUT: high polyreactivity

INPUT: For the sequence shown here, QVQLVESGGGLVQAGGSLRLSCAASGSTFLTNAMGWYRQAPGKERELVAAITWSGTSTYADSVKGRFTISRDNAKNTVYLQMNSLKPDDTAVYYCAAPILSFPSPYVQYDYWGQGTQVTVSS , give the reported polyreactivity (PSR sort gate).
OUTPUT: low polyreactivity

INPUT: Using the record for QVQLVESGGGLVQAGGSLRLSCAASGRTFSHNAMGWYRQAPGKERELVAAISRGGGTNYADSVKGRFTISRDNAKNTVYLQMNSLKPEDTAVYYCAAAGYDSNGRYYYWGQGTQVTVSS , report its polyreactivity (PSR sort gate).
OUTPUT: high polyreactivity

INPUT: Report polyreactivity (PSR sort gate) for QVQLVESGGGLVQAGGSLRLSCAASGRTFLYYAMGWYRQAPGKERELVAAISSGGRTNYADSVNGRFTISRDNAKNTVYLQMNSRKPEDTAVYYCAVRRGAFSTYPGYNYWGQGTQVTVSS please.
OUTPUT: high polyreactivity

INPUT: # polyreactivity (PSR sort gate) lookup, item QVQLVESGGGLVQAGGSLRLSCAASGSIFDIYGMGWYRQAPGKERELVASISGGAGSTNYADSVKGRFTISRDTAKNTVYLQMNWLKPEDTAVYYCAAEVYVPDYFQHKFDVEYEYWGQGTQVTVSS
OUTPUT: low polyreactivity

Others:
INPUT: Param item = QDQLVESGGGLVQAGGSLRLSCAASGRTFWVYAMGWYRQAPGKERELVAAIRRGGITNYADSVKGRFTISRDNAKNTVYLQMNSLKPEDTAVYYCATDNYGYLTRYYYWGQGTQVTVSS ; retrieve measured polyreactivity (PSR sort gate).
OUTPUT: low polyreactivity

INPUT: Query: polyreactivity (PSR sort gate); subject: QVQLVESGGGLVQAGGSLRLSCAASGSIFYAYAMGWYRQAPGKERELVAAISSDGSTYYADSVKGRFTISRDNAKNTVYLQMTSLKPEDTAVYYCAASVLAPNAVSGSDYWGQGTQVTVSS
OUTPUT: low polyreactivity

INPUT: Would you kindly share the measured polyreactivity (PSR sort gate) for QVQLLESGGGLDQAGGILRLSCASSGRTFNWYAMGWYRQAPGKEREFVAAINWSGGSTYYADSVKGRFTISRDNAKNTVYLQMNSLKPEDTAVYYCNKYPVGYRMYYWGQGTQVTVSS ?
OUTPUT: low polyreactivity

INPUT: Need polyreactivity (PSR sort gate) of QVQLVESGGGLVQAGGSLRLSCAASGFIFIGNTMGWYRQAPGKDRELVAAIRWSGGSTYYADSVKGRFTISRDNAKNTVYLQMNSLKPEDTAVYYCAARRWSKTRYYYWGQGTQVTVSS , thanks.
OUTPUT: high polyreactivity

INPUT: Which measured polyreactivity (PSR sort gate) value corresponds to QVQLVESGGGLVQAGGSLRLSCAASGSTFDTYAMGWYRQAPGKERELGAAISWSVDSTYYADSVKGRFTISRDNAKNTVYLQMNSLKPEDTAVYYCATVGYGYDYWGQGTQVTVSS ?
OUTPUT: high polyreactivity

INPUT: Requested field: polyreactivity (PSR sort gate). Item: QVQLVESGGGLVQAGGSLRLSCAASGIIFEGYAMGWYRQAPGKERELVAAISQSGGSTRYADSVKGRFTISRDNAKNTVYLQMNSLKPEDTAVYYCAKLSLSWDGYYQYDYWGQGTQVTVSS
OUTPUT: low polyreactivity

Attribution: the nanobody polyreactivity screen of Harvey et al. (2022)
